measurement_target: AChE in neural stem cell spheroids (Homo sapiens, UniProt P22303)
Sequence (P22303 32-614): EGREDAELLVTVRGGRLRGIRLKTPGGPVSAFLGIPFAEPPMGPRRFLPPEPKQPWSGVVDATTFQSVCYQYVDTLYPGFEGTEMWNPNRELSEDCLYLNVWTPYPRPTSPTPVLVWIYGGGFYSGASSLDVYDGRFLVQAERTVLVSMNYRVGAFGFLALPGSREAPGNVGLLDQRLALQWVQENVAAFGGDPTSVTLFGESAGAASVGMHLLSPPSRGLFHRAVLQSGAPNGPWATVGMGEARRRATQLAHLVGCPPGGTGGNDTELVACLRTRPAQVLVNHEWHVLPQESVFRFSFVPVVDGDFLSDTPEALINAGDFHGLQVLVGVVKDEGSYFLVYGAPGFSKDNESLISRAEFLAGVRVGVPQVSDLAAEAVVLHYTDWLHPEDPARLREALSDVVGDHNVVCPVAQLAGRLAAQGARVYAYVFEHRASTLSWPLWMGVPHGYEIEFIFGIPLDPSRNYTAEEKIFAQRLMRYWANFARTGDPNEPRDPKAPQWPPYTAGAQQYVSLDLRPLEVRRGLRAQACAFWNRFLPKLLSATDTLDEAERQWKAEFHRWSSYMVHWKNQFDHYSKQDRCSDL
method_description: cell-based
details: potency (IC50), Neural stem cell spheroid (24 h)
Counter-ions that a name gives are not always drawn.
Measured IC50 by item
Return type: number; implicit unit µM.

Solved entries:
>  <compound>
CN1C(=O)COc2c(C(=O)NC3CN4CCC3CC4)cc(Cl)cc21 (centres unmarked) [Azasetron hydrochloride, reference compound]

>  <readout_unit>
µM

>  <IC50>
16.5

$$$$
>  <compound>
CCN(CC)CCOc1ccc2c(c1)C(=O)c1cc(OCCN(CC)CC)ccc1-2 [Tilorone, reference compound]

>  <readout_unit>
µM

>  <IC50>
19.6

$$$$
>  <compound>
CCOP(=S)(OCC)Oc1ccc([N+](=O)[O-])cc1 [Parathion]

>  <readout_unit>
µM

>  <IC50>
3.9

$$$$

Entry CCOP(=S)(Oc1cnc(C(C)(C)C)nc1)OC(C)C (centres unmarked) [Tebupirimfos] ; IC50 = 2.08

Input O=C(Nc1cccc(C2=NCCN2)c1)Nc1cccc(C2=NCCN2)c1 [Imidocarb dipropionate, reference compound] . Output IC50: 19.4

Quick note, IC50 for CCc1ccc(C(=O)C(C)CN2CCCCC2)cc1.Cl (centres unmarked) [Eperisone hydrochloride, reference compound] landed at 15

The reported value for COc1ccc(C(=O)NCc2ccc(OCCN(C)C)cc2)cc1OC.Cl [Itopride hydrochloride, reference compound] in terms of IC50 is 23.5

Short answer for CCOP(=S)(OCC)Oc1cc(C)nc(C(C)C)n1 [Diazinon] : IC50 was 0.04

---

measurement_target: AChE in neural stem cells (Homo sapiens)
method_description: cell-based
test_readout: pIC50
By convention, pIC50 is the negative base-10 log of a molar concentration.

>  <compound>
CCOP(=S)(OCC)OC(Cl)C(Cl)(Cl)Cl (stereo not drawn)

>  <pIC50>
4.34

$$$$

Summary: COc1ccc(C(=O)NCc2ccc(OCCN(C)C)cc2)cc1OC.Cl [Itopride hydrochloride, reference compound] , AChE in neural stem cells (Homo sapiens), pIC50 = 4.95

Query CNC(=O)Oc1cc(C)cc(C(C)C)c1 on AChE in neural stem cells (Homo sapiens); pIC50 returned: 5.87

With AChE in neural stem cells (Homo sapiens) as the test system, CCCSP(=O)(OCC)Oc1ccc(Br)cc1Cl (stereo not drawn) showed pIC50 of 5.98

Kindly note: AChE in neural stem cells (Homo sapiens), CCOC(=O)CCN(SN(C)C(=O)Oc1cccc2c1OC(C)(C)C2)C(C)C , pIC50 value reported: 5.12

---

Recorded measurements of pIC50, one per entry
measurement_target: recombinant human AChE (Homo sapiens, UniProt P22303)
Sequence (P22303 32-614): as above
method_description: biochemical
details: potency (IC50), Enzyme
Counter-ions that a name gives are not always drawn.
Just so you know, pIC50 here is -log10 of the concentration in molar units; reply with that number alone.

Worked cases, answers included:
>  <compound>
CNC(=O)Oc1cccc2c1OC(C)(C)C2

>  <measurement_target>
recombinant human AChE (Homo sapiens, UniProt P22303)

>  <test_readout>
pIC50

>  <result_number>
7.05

$$$$
>  <compound>
CNC(=O)Oc1cccc2c1OC(C)(C)O2

>  <measurement_target>
recombinant human AChE (Homo sapiens, UniProt P22303)

>  <test_readout>
pIC50

>  <result_number>
6.29

$$$$
>  <compound>
CNC(=O)ON=C(C)SC

>  <measurement_target>
recombinant human AChE (Homo sapiens, UniProt P22303)

>  <test_readout>
pIC50

>  <result_number>
5.74

$$$$
>  <compound>
O=C(O)/C=C/C(=O)O.O=C1c2ccccc2C(=O)N1CCc1noc(-c2ccc(CN3CCCCCC3)s2)n1

>  <measurement_target>
recombinant human AChE (Homo sapiens, UniProt P22303)

>  <test_readout>
pIC50

>  <result_number>
4.96

$$$$
>  <compound>
CCOC(=O)C(SP(=S)(OC)OC)c1ccccc1 (stereo not drawn) [Phenthoate]

>  <measurement_target>
recombinant human AChE (Homo sapiens, UniProt P22303)

>  <test_readout>
pIC50

>  <result_number>
4.60

$$$$
>  <compound>
CCN(C(=O)c1cc(C)cc(OC[C@H](C)Nc2ccncc2)c1)C(C)C.Cc1ccc(S(=O)(=O)O)cc1 [GW473178E methyl benzene sulfonic acid]

>  <measurement_target>
recombinant human AChE (Homo sapiens, UniProt P22303)

>  <test_readout>
pIC50

>  <result_number>
4.97

$$$$
>  <compound>
CCOP(=S)(OCC)Oc1nc(Cl)c(Cl)cc1Cl [Chlorpyrifos, reference compound]

>  <measurement_target>
recombinant human AChE (Homo sapiens, UniProt P22303)

>  <test_readout>
pIC50

>  <result_number>
4.32

$$$$
>  <compound>
CCOC(=O)c1cn2nc(OP(=S)(OCC)OCC)cc2nc1C

>  <measurement_target>
recombinant human AChE (Homo sapiens, UniProt P22303)

>  <test_readout>
pIC50

>  <result_number>
4.30

$$$$
>  <compound>
CCOP(=O)(OCC)Oc1cc(C)nc(C(C)C)n1

>  <measurement_target>
recombinant human AChE (Homo sapiens, UniProt P22303)

>  <test_readout>
pIC50

>  <result_number>
5.95

$$$$
>  <compound>
CCOP(=S)(OCC)SCSP(=S)(OCC)OCC

>  <measurement_target>
recombinant human AChE (Homo sapiens, UniProt P22303)

>  <test_readout>
pIC50

>  <result_number>
5.10

$$$$

Lookup result for CCN1CCC2(CC1)COc1cc3c(cc12)N(C(=O)c1ccc(-c2ccc(-c4nnc(C)o4)cc2C)cc1)CC3.Cl [SB236057A] ; measured pIC50: 4.42

Entry O=C(c1ccc(OCCN2CCCCC2)cc1)c1c(-c2ccc(O)cc2)sc2cc(O)ccc12 [Raloxifene hydrochloride, reference compound] — recorded pIC50 = 5.67

Entry C=CC[N+]1([C@H]2C[C@H]3[C@@H]4CC[C@H]5C[C@H](OC(C)=O)[C@@H](N6CCCCC6)C[C@]5(C)[C@H]4CC[C@]3(C)[C@H]2OC(=O)CC)CCCCC1 [Rapacuronium bromide, reference compound] , pIC50 reported as 4.65

response.value for O=C(Nc1cccc(C2=NCCN2)c1)Nc1cccc(C2=NCCN2)c1 [Imidocarb dipropionate, reference compound] (field: pIC50) = 4.73

Just so you know, measured pIC50 for CNC(=O)Oc1ccccc1C(C)C came out at 5.18
